Recorded Trimeric HA Binding: RLU by entry
biological target: recombinant homotrimeric HA A/chicken/Vietnam/NCVD-016/08 H5N1 (Influenza A virus A/chicken/Vietnam/NCVD-016/2008(H5N1)); assay: protein microarray, purified IgG, trimeric HA; settings: remark: other sources report otherwise
Give the value in RLU but do not write RLU after it.

Some solved entries appear below for comparison.
TCN-536 (5095_N01) (antibody, V domains shown) VH: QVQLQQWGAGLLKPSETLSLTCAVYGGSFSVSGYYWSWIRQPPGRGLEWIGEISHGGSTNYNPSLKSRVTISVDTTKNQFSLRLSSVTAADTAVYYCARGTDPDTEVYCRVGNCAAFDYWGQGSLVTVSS VL: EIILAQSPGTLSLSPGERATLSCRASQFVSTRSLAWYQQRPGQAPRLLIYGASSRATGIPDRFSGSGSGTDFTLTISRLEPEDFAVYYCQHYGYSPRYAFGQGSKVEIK
419
TCN-545 (5082_I15) (antibody, V domains shown) VH: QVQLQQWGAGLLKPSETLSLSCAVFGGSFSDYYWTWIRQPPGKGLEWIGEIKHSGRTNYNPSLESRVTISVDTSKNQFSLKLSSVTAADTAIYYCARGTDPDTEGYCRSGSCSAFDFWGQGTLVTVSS VL: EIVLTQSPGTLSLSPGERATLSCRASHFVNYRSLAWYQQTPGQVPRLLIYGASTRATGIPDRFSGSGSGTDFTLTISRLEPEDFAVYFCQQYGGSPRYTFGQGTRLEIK
679
TCN-529 (5297_H01) (antibody, V domains shown) VH: QITLRESGPTLVKPTQTLTLTCTFSGFSLSTNGVNVGWIRQPPGKALEWLALIYWDDDKRYSPSLKRRLTITKDTSKNQVVLTLTNMDPVDTATYYCAHRPDFYGDFEYWGPGTLVTVSS VL: QSALTQPASVSGSPGQSITISCTGSSSDIGGYNYVSWYQQHPGKAPKLMIYDVNNRPSGVSNRFSGSKSGNTASLTISGLQTDDEADYYCGSYTGSPHYVFGTGTKVTVL
681
TCN-554 (5277_M05) (antibody, V domains shown) VH: QVQLVQSGADLKKPGASVKVSCKASGYTFTDYYIHWVRQAPGQGLEWMGWINPESGDTKYAQKFQGRVTMTRDTSITTAYMELGRLRSDDTAVYYCARDVSTTWSWFAPWGQGTLVTVSS VL: DIVMTQSPDSLAVSLGERATINCRSSQSIFHNSNNENYLAWYQQKPGQPPKLLIYWASTRESGVPDRFSGSGSGTDFTLTISSLQAEDVAVYFCQQYYNAPLTFGGGTKVEIK
544
TCN-539 (5056_A08) (antibody, V domains shown) VH: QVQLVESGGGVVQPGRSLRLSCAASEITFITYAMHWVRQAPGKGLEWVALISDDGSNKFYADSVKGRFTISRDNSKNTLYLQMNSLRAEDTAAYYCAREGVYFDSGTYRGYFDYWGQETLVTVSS VL: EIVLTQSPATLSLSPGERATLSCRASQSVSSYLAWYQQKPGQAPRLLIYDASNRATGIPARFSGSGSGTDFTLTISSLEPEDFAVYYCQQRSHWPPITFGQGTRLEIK
144

Tell me the measured Trimeric HA Binding: RLU of TCN-532 (5262_H18) (antibody, V domains shown) VH: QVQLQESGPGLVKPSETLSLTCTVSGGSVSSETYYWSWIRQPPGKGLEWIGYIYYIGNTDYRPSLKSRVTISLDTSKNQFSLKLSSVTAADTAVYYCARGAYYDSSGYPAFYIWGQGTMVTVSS VL: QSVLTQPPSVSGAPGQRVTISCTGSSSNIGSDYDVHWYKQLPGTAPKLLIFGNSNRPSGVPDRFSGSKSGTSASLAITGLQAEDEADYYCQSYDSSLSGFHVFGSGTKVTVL , please. 487
